- assay-summary: basal MM1S mitochondrial membrane potential changes, profiling panel, cell-based, JC-1 fluorescence, 24 h, 100 nL compound (AID 1170); also: test concentration not given here
- experimental-parameters: higher = more signal
Note to self: values exactly at -0.6 are satisfied. So z-score at or above -0.6 is satisfied, below is not satisfied.

Request: Does the reported z-score for `COc1ccc([Si](C)(C)[C@H]2[C@H](CCn3cc([C@H](O)c4ccccc4)nn3)O[C@@]3(C(=O)N(Cc4cccc(N5CCC5=O)c4)c4ccccc43)[C@@H]2C)cc1` fall at or above the -0.6 mark?
Result: not satisfied

Request: Also `CN(C)CCCCNC(=O)[C@H]1C[C@H]2C(=O)N[C@@H](Cc3ccccc3)C(=O)N2[C@H]1c1ccc(O)cc1` ?
Result: satisfied

Request: Try CCOC(=O)C1=CCC(c2ccc([N+](=O)[O-])cc2)N(S(=O)(=O)c2ccc(C)cc2)C1 (configuration not stated) next.
Result: not satisfied

Request: And for O=C1OCCC/C=C\[C@H]2OC34C=CCN(Cn5nnc6ccccc65)C(=O)[C@H]3N(CCCCCO)C(=O)[C@@H]4C12 (some centres not stated) ?
Result: satisfied

Request: # iterate: O=C1C2C=CC(C(O)c3ccc(-c4ccccc4)s3)N(n3cnnc3)C2C(=O)N1Cc1ccccc1 (configuration not stated)
Result: satisfied

Request: And then `O=C1O[C@H](c2ccccc2)[C@H](c2ccccc2)N2[C@H]1[C@@H](C(=O)N1CCN(c3ncccn3)CC1)[C@]1(C(=O)Nc3ccccc31)[C@H]2c1ccc(OCCO)cc1` , what is it?
Result: satisfied

----------
- target-entity: Torsin-1A-interacting protein 2 (Homo sapiens) (UniProt Q8NFQ8)
- Sequence (Q8NFQ8 whole entry, looked up): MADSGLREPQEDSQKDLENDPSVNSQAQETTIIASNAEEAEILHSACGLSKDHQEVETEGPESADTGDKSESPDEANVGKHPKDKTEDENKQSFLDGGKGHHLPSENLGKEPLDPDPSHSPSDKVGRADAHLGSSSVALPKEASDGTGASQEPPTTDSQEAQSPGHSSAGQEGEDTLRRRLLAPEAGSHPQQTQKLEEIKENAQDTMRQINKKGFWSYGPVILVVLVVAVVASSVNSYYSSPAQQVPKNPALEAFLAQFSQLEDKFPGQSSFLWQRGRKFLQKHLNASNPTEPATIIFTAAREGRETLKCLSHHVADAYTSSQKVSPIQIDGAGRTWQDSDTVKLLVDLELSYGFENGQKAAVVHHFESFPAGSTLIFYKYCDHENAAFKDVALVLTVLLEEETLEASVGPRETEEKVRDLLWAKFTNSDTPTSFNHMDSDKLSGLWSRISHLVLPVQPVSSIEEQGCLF
- assay-summary: LULL1 binders on small-molecule microarray, primary screen, cell lysate, human LULL1 lysate, 635/667 nm fluorescence (AID 1092);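 also: probe is lysate of COS7 cells overexpressing human LULL1; score merges per-feature 667 nm fluorescence with signal-to-noise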
- experimental-parameters: hLULL1 lysate binding, 635 nm fluorescence, higher = more signal
Please provide measured composite z-score for the entries that follow.
Please state the value as a number alone, without comment.

Request: Recorded composite z-score for `CN(C)C(=O)[C@@]1(CCC(=O)OC(C)(C)C)N=C(c2ccc(OCCCO)cc2)O[C@H]1c1ccccc1` with Torsin-1A-interacting protein 2 (Homo sapiens) (UniProt Q8NFQ8), please?
Result: 3.55

Request: How about this compound: CC(C)c1ccc(NN2C(C(O)c3ccc(N(C)C)cc3)C=CC3C(=O)N(c4ccccc4)C(=O)C32)cc1 (configuration not stated)
Result: 3.34

Request: Repeat for the following compound: `O=C1O[C@H](c2ccccc2)[C@H](c2ccccc2)N2[C@H]1[C@@H](C(=O)Nc1nc3ccccc3s1)[C@]1(C(=O)Nc3ccccc31)[C@H]2c1ccc(O)cc1`
Result: 2.74

Request: Next up: `CCOC(=O)C[C@H]1[C@H](OC(=O)c2ccccc2-c2ccccc2)[C@@H](NC(=O)c2ccc3ccccc3c2)c2cc(OCCCO)ccc2N1C(=O)c1ccc2ccccc2n1`
Result: 0.998

Request: Please answer likewise for `CN(C)CCCCCCNC(=O)[C@H]1C[C@H]2C(=O)N[C@@H](CCCCN)C(=O)N2[C@H]1c1ccc(O)cc1`
Result: 4.58

Request: Now consider `C=CCNC(=O)[C@@H]1[C@H]2C(=O)O[C@H](c3ccccc3)[C@H](c3ccccc3)N2[C@H](c2ccc(O)cc2)[C@@]12C(=O)N(C(=O)OCCOC)c1ccccc12` .
Result: 3.25

Request: `COCCOC(=O)N1C(=O)[C@@]2(c3cc(C#CCCO)ccc31)[C@H](C(=O)NC[C@H](O)c1ccccc1)[C@H]1C(=O)O[C@H](c3ccccc3)[C@H](c3ccccc3)N1[C@@H]2c1ccc(O)cc1` ?
Result: 2.35

----------
For each record, write down the corresponding composite z-score.
- target-entity: E3 ubiquitin-protein ligase XIAP (Homo sapiens) (UniProt P98170)
- Sequence (P98170 whole entry, looked up): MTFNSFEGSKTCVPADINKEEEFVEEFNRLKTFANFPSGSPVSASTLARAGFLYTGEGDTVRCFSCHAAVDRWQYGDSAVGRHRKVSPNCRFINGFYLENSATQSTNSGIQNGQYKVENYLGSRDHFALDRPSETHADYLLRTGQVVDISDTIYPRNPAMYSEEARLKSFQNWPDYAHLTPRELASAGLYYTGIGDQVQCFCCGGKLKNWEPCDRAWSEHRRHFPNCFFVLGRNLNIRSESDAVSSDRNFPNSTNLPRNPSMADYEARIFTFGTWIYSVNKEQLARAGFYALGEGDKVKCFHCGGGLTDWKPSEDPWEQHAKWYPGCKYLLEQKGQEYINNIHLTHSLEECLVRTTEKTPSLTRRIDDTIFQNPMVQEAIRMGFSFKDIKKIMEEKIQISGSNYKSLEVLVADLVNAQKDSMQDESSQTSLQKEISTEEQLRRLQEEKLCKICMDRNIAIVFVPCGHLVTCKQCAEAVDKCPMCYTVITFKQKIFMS
- assay-summary: XIAP binders, primary screen, biophysical, small-molecule microarray, fluorescence 635 nm (AID 1181);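 also: score merges 667 nm emission and signal to noise over triplicate slides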
- experimental-parameters: small-molecule microarray binding, higher = more signal
A bare number is all that is needed in reply.

Request: Using the record for `C=CCOC(=O)[C@@H]1[C@H]2C(=O)O[C@H](c3ccccc3)[C@H](c3ccccc3)N2[C@H](c2ccc(OCCOC(=O)[C@@H]3C[C@@H]4C(=O)NCC(=O)N4[C@@H]3c3cccc(OCCO)c3)cc2)[C@@]12C(=O)Nc1ccc(I)cc12` , report its composite z-score.
Result: 0.0586

Request: Now consider `C=CCNC(=O)[C@@H]1[C@H]2C(=O)O[C@H](c3ccccc3)[C@H](c3ccccc3)N2[C@H](c2ccc(O)cc2)[C@@]12C(=O)N(C(=O)OCCOC)c1ccccc12` and answer again.
Result: -0.17

Request: Next molecule: COc1cccc(C(=O)O[C@H]2CC[C@]3(C)C4=C(CCC3C2(C)C)[C@]2(C)CC[C@H]([C@H](C)CCCC(C)C)[C@@]2(C)CC4)c1 (stereo partly drawn)
Result: 0.132

Request: How about `COc1cc(CO)ccc1OC(C)=O` ?
Result: -0.17

Request: Here is the next molecule: N#Cc1ccc(NN2C(C(O)c3cccs3)C=CC3C(=O)N(c4ccccc4)C(=O)C32)cc1 (stereo not drawn)
Result: -0.126

Request: How about this molecule: `CCOC(=O)C1=C[C@@H](C(C)C)N(S(=O)(=O)c2ccc(C)cc2)[C@H]1c1ccc(C(C)C)cc1`
Result: -0.192

Request: Another: O=C1OCCC=C[C@H]2OC34C=CCN(c5ccc6ccccc6c5)C(=O)[C@H]3N(CCCCCO)C(=O)[C@@H]4C12 (stereo partly drawn)
Result: -0.174

Request: Item: `COc1ccc(CCNC(=O)[C@@]2(c3ccc([N+](=O)[O-])cc3)CC(=O)N(CC34CC5CC(CC(C5)C3)C4)[C@@H]2c2ccc(CO)cc2)cc1`
Result: 0.0073

Request: Would you kindly repeat that for `COCCOC(=O)N1C(=O)[C@@]2(c3cc(C#CC4=CCCCC4)ccc31)[C@H](C(=O)N1CCc3cc(OC)c(OC)cc3C1)[C@H]1C(=O)O[C@H](c3ccccc3)[C@H](c3ccccc3)N1[C@@H]2c1ccccc1OCCO` ?
Result: 0.0039

Request: Item: `CCCC[C@@H]1C[C@H]1[C@@H](NC(=O)c1ccc(-c2ccccc2)cc1)c1ccc(-c2ccccc2)cc1`
Result: 0.359

Request: Now consider CC=CC(O)C1C=CC2C(=O)N(c3ccccc3)C(=O)C2N1Nc1ccc(C(C)C)cc1 (stereo not drawn) .
Result: 0.384

Request: Consider next the molecule `COCCOC(=O)N1C(=O)[C@@]2(c3cc(C#CCNC(N)=O)ccc31)[C@H](C(=O)N1CCc3cc(OC)c(OC)cc3C1)[C@H]1C(=O)O[C@H](c3ccccc3)[C@H](c3ccccc3)N1[C@@H]2c1ccc(OCCO)cc1` in the same way.
Result: 0.122

Request: Item: `COc1cc2c(cc1OC)CN(C(=O)[C@@H]1[C@H]3C(=O)O[C@H](c4ccccc4)[C@H](c4ccccc4)N3[C@H](c3ccccc3OCCO)[C@@]13C(=O)Nc1ccc(C#CCNC(N)=O)cc13)CC2`
Result: 0.153

----------
- target-entity: Fibroblast growth factor 2 (Homo sapiens) (UniProt P09038)
- Sequence (P09038 whole entry, looked up): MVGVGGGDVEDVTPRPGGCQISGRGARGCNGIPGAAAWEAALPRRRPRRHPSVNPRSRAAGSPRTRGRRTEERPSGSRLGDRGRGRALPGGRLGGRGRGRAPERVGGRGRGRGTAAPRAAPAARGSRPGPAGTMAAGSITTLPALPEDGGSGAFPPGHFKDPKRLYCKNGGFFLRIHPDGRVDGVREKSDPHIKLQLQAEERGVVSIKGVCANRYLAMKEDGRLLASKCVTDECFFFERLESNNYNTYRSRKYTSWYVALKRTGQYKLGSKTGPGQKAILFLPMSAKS
- assay-summary: FGF2 binders on small-molecule microarrays, primary screen, biochemical, small-molecule microarray, 635/667 nm fluorescence (AID 1133)
- experimental-parameters: small-molecule microarray binding, FGF2, fluorescence 635/667; higher = more signal
In this scheme, each record receives a class according to its composite z-score; the ranges are class 1: < -0.3; class 2: ≥ -0.3 and < 0.4; class 3: ≥ 0.4

Request: For this molecule, which bin applies? `Cc1ccc(F)cc1S(=O)(=O)N[C@@H]1CCN(Cc2ccc(-c3ccccc3)cc2)C1`
Result: class 3

Request: How about CC(=O)C1=CCC(c2ccccc2)N(S(=O)(=O)c2ccc(C)cc2)C1 (centres undefined) ?
Result: class 2

Request: Record: COC(=O)c1ccc(C(O)C2C=CC3C(=O)N(c4ccccc4)C(=O)C3N2Nc2ccc(C#N)cc2)o1 (centres undefined)
Result: class 2

Request: Now the molecule `Cc1ccc([C@H]2[C@H](C(=O)O)[C@H](Sc3ccccc3)[C@@H](C(C)C)N2S(=O)(=O)c2ccc(C)cc2)cc1`
Result: class 2

Request: How about CC(C)OC(=O)CC(=O)CC(O)c1ccc(C#N)cc1 (centres undefined) ?
Result: class 1

Request: Then this molecule: C=CC(COC(C)=O)NS(=O)(=O)c1ccc(Br)cc1 (centres undefined)
Result: class 3

Request: And the next one, `C[C@]1(C(=O)NCc2ccccc2)c2ccccc2C(=O)N(Cc2cc(F)cc(C(F)(F)F)c2)[C@H]1c1ccc(CO)cc1` ?
Result: class 2

Request: Then `COC(=O)[C@@]1(Cc2ccc(OC)cc2)[C@H]2c3cc(C(=O)N4CCCC4)n(Cc4ccccn4)c3C[C@H]2CN1C(=O)c1ccccc1` ?
Result: class 1

Request: Param item: `Cc1ccc(S[C@]2(C(=O)NCC(C)C)CC(=O)N(Cc3ccccc3)[C@@H]2c2ccc(CO)cc2I)cc1`
Result: class 3
